Where these numbers come from: patent US20240059703A1

Target: KRAS G12C (Homo sapiens (Human), UniProt P01116, C118A/G12C)
Sequence (P01116 other isoform, or with tags, fused parts or gaps G12C/C118A): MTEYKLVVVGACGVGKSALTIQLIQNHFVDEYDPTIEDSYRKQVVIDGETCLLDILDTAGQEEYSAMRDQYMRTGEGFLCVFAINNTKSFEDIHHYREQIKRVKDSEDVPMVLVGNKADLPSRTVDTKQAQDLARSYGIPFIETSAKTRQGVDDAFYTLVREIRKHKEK
Experiment: 2 h coupled exchange assay
Assay type: biochemical
Settings: Avg 2 h Coupled exchange IC50, 2 h compound pre-incubation, SOS-mediated nucleotide exchange
For each record, check the reported IC50: if it is below 100 nM write satisfied, else write not satisfied.

C=CC(=O)N1CC2(CCN(c3nc4cc(OC)ccc4c(-c4c(C)ccc5[nH]ncc45)c3C)C2)C1 ... not satisfied

[ask] Hi there! Is IC50 for C=CC(=O)N1CC2(CCN(c3nc4c(c(-c5c(C)ccc6[nH]ncc56)c3C#N)C3CC3C4)C2)C1 (centres unmarked) below 100 nM, do you know?
[reply] satisfied

[ask] Try C=CC(=O)N1CC2(CCN(c3nc4cc(-c5nccs5)cn4c(-c4c(C)ccc5[nH]ncc45)c3C#N)C2)C1 next.
[reply] not satisfied

[ask] Thanks! And C=CC(=O)N1CC2(CCN(c3nc4c(c(-c5cc(O)cc6ccncc56)c3C#N)C[C@H]3C[C@@H]4C3(C)C)C2)C1 ?
[reply] not satisfied

[ask] Queued: C=CC(=O)N1CC2(CCN(c3nc4c(c(-c5c(C)ccc6cn[nH]c56)c3C)CCC(C)(C)C4)C2)C1 (single isomer, unassigned) [Example 2-24]
[reply] not satisfied

====

Molecular target: KRAS G12C (Homo sapiens (Human), UniProt P01116, C118A/G12C)
Assay: 2 h coupled exchange assay
Format: biochemical
Conditions: Avg 2 h Coupled exchange IC50, 2 h compound pre-incubation, SOS-mediated nucleotide exchange
quantity: IC50 (nM)
Enter your answer as a number in nM; do not include the unit.

In the examples that follow, each entry is paired with its recorded IC50.
C=CC(=O)N1CC2(CCN(c3cn4ccnc4c(-c4cc(O)ccc4C)c3C#N)C2)C1 ... 3530
C=CC(=O)N1CC2(CCN(c3nc4c(c(-c5cccc6snnc56)c3C#N)COC(C)(C)C4)C2)C1 ... 601
C=CC(=O)N1CC2(CCN(c3nc4c(c(-c5cc(O)ccc5C)c3C#N)COC(C)(C)C4)C2)C1 [Example 13-112] ... 117

[ask] What measured IC50 goes with C=C(Cl)C(=O)N1CC2(CCN(c3nc4c(c(-c5c(C)ccc6[nH]ncc56)c3C#N)CCC(C)(C)C4)C2)C1 ?
[reply] 166

[ask] Next compound: C=CC(=O)N1CC2(CCN(c3nc4c(c(-c5c(C)ccc6cnn(C)c56)c3C#N)CC[C@H]3C[C@@H]43)C2)C1 (single isomer, unassigned) [Example 13-137]
[reply] 72

[ask] And for Cc1ccc2[nH]ncc2c1-c1c(C#N)c(N2CCC3(CN(C(=O)/C=C/CF)C3)C2)nc2c1CCC(C)(C)C2 ?
[reply] 169

====

Molecular target: KRAS G12C (Homo sapiens (Human), UniProt P01116, C118A/G12C)
Experiment: 2 h coupled exchange assay
Assay type: biochemical
Settings: Avg 2 h Coupled exchange IC50, 2 h compound pre-incubation
quantity: pIC50
Hey, just a heads up that pIC50 is the negative log base 10 of the concentration in molar.

Cc1ccc2[nH]ncc2c1-c1c(C#N)c(N2CCC3(CN(C(=O)/C=C/COC(F)F)C3)C2)nc2c1CCC(C)(C)C2 [Example 30-1] ... 6.31

[ask] Suppose we examine the compound C=CC(=O)N1CC2(CCN(c3nc4c(c(-c5c(C)ccc6cn[nH]c56)c3C#N)C[C@H]3C[C@@H]4C3(C)C)C2)C1 (single isomer, unassigned) [Example 14-51] ; what pIC50 value has been reported?
[reply] 7.96

[ask] Please answer likewise for C=CC(=O)N1CC2(CCN(c3nc4c(c(-c5ccccc5F)c3C#N)COC(c3scnc3C)C4)C2)C1 (stereo not drawn) [Example 23-8]
[reply] 6.77

[ask] What do you have for C=CC(=O)N1CC2(CCN(c3nc4c(c(-c5cccc(F)c5OC)c3C#N)CCC(c3scnc3C)=C4)C2)C1 [Example 23-53] ?
[reply] 6.41

[ask] Can you handle C=CC(=O)N1CC2(CCN(c3nc4c(c(-c5c(C)ccc6cn[nH]c56)c3F)COC(C)(C)C4)C2)C1 [Example 14-54] next?
[reply] 6.46

[ask] # iterate: C=CC(=O)N1CC2(CCN(c3nc4cc(-c5cc(C)nn5C)ccc4c(-c4ccccc4Cl)c3C)C2)C1 [Example 16-2]
[reply] 6.19

[ask] Entry C=CC(=O)N1CC2(CCN(c3nc4cc(-c5ccnn5C)ccc4c(-c4ccccc4F)c3C)C2)C1 [Example 16-4] please
[reply] 6.19

[ask] Repeat with C=CC(=O)N1CC2(CCN(c3cc4c(c(-c5c(C)ccc6[nH]ncc56)c3C)COCC4)C2)C1 [Example 14-104]
[reply] 6.62

====

Target: KRAS G12C (Homo sapiens (Human), UniProt P01116, C118A/G12C)
Test: 2 h coupled exchange assay
Format: biochemical
Conditions: Avg 2 h Coupled exchange IC50, 2 h compound pre-incubation, SOS-mediated nucleotide exchange
Overview of recorded IC50 for various compounds
Supply the numeric figure in nM, leaving out any unit text.

Below, 2 compounds whose answers are already recorded.
C=CC(=O)N1CC2(CCN(c3nc4c(c(-c5cnccc5C)c3C#N)C[C@H]3C[C@@H]4C3(C)C)C2)C1 (single isomer, unassigned) [Example 13-124] ... 45500
C=CC(=O)N1CC2(CCN(c3nc4c(c(-c5cc(O)cc6cccnc56)c3C#N)C[C@H]3C[C@@H]4C3(C)C)C2)C1 [Example 2-43] ... 193

Moving on to another compound below.
[ask] # lookup: IC50 of C=CC(=O)N1CC2(CCN(c3nc4c(c(-c5c(C)ccc6[nH]ncc56)c3C#N)CCC4(F)F)C2)C1 [Example 13-58]
[reply] 514

====

Molecular target: KRAS G12C (Homo sapiens (Human), UniProt P01116, C118A/G12C)
Experiment: 2 h coupled exchange assay
Assay type: biochemical
Conditions: Avg 2 h Coupled exchange IC50, 2 h compound pre-incubation
Known log10 IC50 of a selection of compounds
// stored as log10 of IC50 expressed in nM

Solved cases (4 shown):
C=CC(=O)N1CC2(CCN(c3nc4c(c(-c5ccccc5F)c3C#N)CCN(C3CCCN(C)C3)C4)C2)C1 (stereo not drawn) ... 2.32
C=CC(=O)N1CC2(CCN(c3nc4cc(-c5scnc5C)ccc4c(-c4c(C)ccc5[nH]ncc45)c3C)C2)C1 ... 1.79
C=CC(=O)N1CC2(CCN(c3nc4c(c(-c5ccc(F)cc5F)c3C#N)CCN(c3scnc3C)C4)[C@@H]2C)C1 ... 2.13
C=CC(=O)N1CC2(CCN(c3nc4cc(-c5sc(CO)nc5C)cnc4c(-c4ccccc4Cl)c3C#N)C2)C1 ... 1.75

In the following, a different compound is considered.
[ask] Param item = C=CC(=O)N1CC2(CCN(c3nc4c(c(-c5cccc(F)c5O)c3C)CC[C@H](c3c(C)cnn3C)C4)C2)C1 ; retrieve measured log10 IC50.
[reply] 2.84

====

Biological target: KRAS G12C (Homo sapiens (Human), UniProt P01116, C118A/G12C)
Experiment: 2 h coupled exchange assay
Assay type: biochemical
Conditions: Avg 2 h Coupled exchange IC50, 2 h compound pre-incubation
Overview of recorded IC50 for various compounds
Please answer in the form of a number followed by its unit of measurement.

Field: example entries. Status: answers known.
C=CC(=O)N1CC2(CCN(c3nc4c(c(-c5c(C)ccc6[nH]ncc56)c3F)C[C@H]3C[C@@H]4C3(C)C)C2)C1 (single isomer, unassigned) [Example 14-74] ... 1560 nM
C=CC(=O)N1CC2(CCN(c3nc4c(c(-c5ncccc5F)c3C#N)CC[C@@H](c3scnc3C)C4)C2)C1 (racemic) [Example 23-57] ... 85 nM

[ask] IC50 for C=CC(=O)N1CC2(CCN(c3nc4c(c(-c5c(O)cccc5F)c3C#N)CCC(c3scnc3C)=C4)C2)C1 [Example 23-29] ?
[reply] 48 nM

[ask] Now the same for C=CC(=O)N1CC2(CCN(c3nc4c(c(-c5cccc6cc(O)ccc56)c3C)CCN(C3CC3)C4)C2)C1
[reply] 79 nM

====

Molecular target: KRAS G12C (Homo sapiens (Human), UniProt P01116, C118A/G12C)
Test: 2 h coupled exchange assay
Type: biochemical
Conditions: Avg 2 h Coupled exchange IC50, 2 h compound pre-incubation, SOS-mediated nucleotide exchange
Protocol: The term “2 h coupled exchange assay” or “20 h coupled exchange assay” as used herein refers to the assay described in the Section entitled “BIOLOGICAL EVALUATION.”
quantity: pIC50
Answer as the number alone; pIC50 is minus log10 of concentration in mol/L.

# example entries with known answers
C=CC(=O)N1CC2(CCN(c3nc4c(c(-c5cc(O)ccc5F)c3C#N)C[C@H]3C[C@@H]4C3(C)C)C2)C1 [Example 2-66] ... 7.05
C=CC(=O)N1CC2(CCN(c3nc4c(c(-c5cc(O)ccc5C)c3C#N)C[C@H]3C[C@@H]4C3)C2)C1 [Example 13-113] ... 7.15
Cc1ccc2[nH]ncc2c1-c1c(C#N)c(N2CCC3(CN(C(=O)/C=C/CN(C)C)C3)C2)nc2c1CCC(C)(C)C2 [Example 13-2] ... 7.21

Okay, now this molecule:
[ask] For C=CC(=O)N1CC2(CCN(c3nc4c(c(-c5cc(O)cc6ncccc56)c3C#N)C[C@H]3C[C@@H]4C3(C)C)C2)C1 (single isomer, unassigned) [Example 2-47] , what is its reported pIC50?
[reply] 6.74
